- assay: Plasma pharmacokinetics in MAD study (LC-MS/MS)
- Assay type: in vivo, human (healthy volunteers)
- conditions: human, plasma; day 1, 60 mg oral; read-out: Geometric mean peak concentration (Cmax, CV%)
measure.name: Cmax (ng/mL)
Write down the numeric answer in ng/mL and omit the unit.

Briefly, Cmax measured for CCOCc1cnc(Cl)nc1Oc1ccc2c(ccc3sc4c(c32)NC[C@@H](C)NC4=O)n1 : 150

---

- assay: Plasma pharmacokinetics in MAD study (LC-MS/MS)
- Type: in vivo, human (healthy volunteers)
- conditions: human, plasma; day 1, 120 mg oral; read-out: Geometric mean peak concentration (Cmax, CV%)
measure.name: Cmax (ng/mL)
Use ng/mL as the unit, but write only the number.

// Cmax lookup, compound = CCOCc1cnc(Cl)nc1Oc1ccc2c(ccc3sc4c(c32)NC[C@@H](C)NC4=O)n1 [CC-99677] , result: 269
